This collection of values is drawn from PubChem BioAssay AID2060512.

system: 186277-243-T-J2-PDC complex spheroid viability; experiment: Anticancer human tumor 186277-243-T-J2-PDC patient-derived colon adenocarcinoma cell line growth inhibition [GQUAD]; settings: curve of first compound; second compound 0.1 µM
pIC50: −log10 of the molar value.
quantityName: pIC50

Example cases with answers are listed next.
compound: C#Cc1c(F)ccc2cc(O)cc(-c3ncc4c(N5CC6CCC(C5)N6)nc(OCC56CCCN5CC(F)C6)nc4c3F)c12 (stereo not given) + CN(C)c1ccc(Nc2c3ccc(NC(=O)CCN4CCCC4)cc3nc3cc(NC(=O)CCN4CCCC4)ccc23)cc1
assayTarget: 186277-243-T-J2-PDC complex spheroid viability
pIC50: 7.08

compound: COc1cc(C2c3cc4c(cc3C(OC3OC5COC(C)OC5C(O)C3O)C3COC(=O)C23)OCO4)cc(OC)c1O (stereo not given) + Cc1cnc(CNC(=O)c2c(=O)c3ccc(N4CCCN(C)CC4)nc3n3c2sc2ccccc23)cn1
assayTarget: 186277-243-T-J2-PDC complex spheroid viability
pIC50: 5.97

compound: O=C(c1cc(Cc2n[nH]c(=O)c3ccccc23)ccc1F)N1CCN(C(=O)C2CC2)CC1 + Cc1[nH]c2ccc(F)cc2c1-c1nc2c3cccnc3c3ncccc3c2[nH]1
assayTarget: 186277-243-T-J2-PDC complex spheroid viability
pIC50: < 5.00

compound: CC(C)n1c(=O)n(C)c2cnc3cc(F)c(-c4ccc(OCCCN5CCCCC5)nc4)cc3c21 + CN(C)c1ccc(Nc2c3ccc(NC(=O)CCN4CCCC4)cc3nc3cc(NC(=O)CCN4CCCC4)ccc23)cc1
assayTarget: 186277-243-T-J2-PDC complex spheroid viability
pIC50: < 5.00

compound: Nc1ccn(C2OC(CO)C(O)C2(F)F)c(=O)n1 (stereo not given) + Cc1[nH]c2ccc(F)cc2c1-c1nc2c3cccnc3c3ncccc3c2[nH]1
assayTarget: 186277-243-T-J2-PDC complex spheroid viability
pIC50: > 7.50

Provide only the value of recorded pIC50 for C#Cc1c(F)ccc2cc(O)cc(-c3ncc4c(N5CC6CCC(C5)N6)nc(OCC56CCCN5CC(F)C6)nc4c3F)c12 (stereo not given) + Cc1[nH]c2ccc(F)cc2c1-c1nc2c3cccnc3c3ncccc3c2[nH]1 7.07

* * *

tested on: 186277-243-T-J2-PDC complex spheroid viability; experiment: Anticancer human tumor 186277-243-T-J2-PDC cell line growth inhibition [GQUAD]; details: curve of first compound; second compound 1 µM;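 further: spheroids exposed to drugs for 7 days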
quantityName: pIC50
The read-out pIC50 is expressed as -log10 of concentration in moles per litre.

Specify measured pIC50 for CCCS(=O)(=O)Nc1ccc(F)c(C(=O)c2c[nH]c3ncc(-c4ccc(Cl)cc4)cc23)c1F + CN(C)c1ccc(Nc2c3ccc(NC(=O)CCN4CCCC4)cc3nc3cc(NC(=O)CCN4CCCC4)ccc23)cc1 . 5.20

Tell me its pIC50 given CC[C@@]1(O)C(=O)OCc2c1cc1n(c2=O)Cc2cc3c(CN(C)C)c(O)ccc3nc2-1 + CN(C)c1ccc(Nc2c3ccc(NC(=O)CCN4CCCC4)cc3nc3cc(NC(=O)CCN4CCCC4)ccc23)cc1 as the entry. 6.69

Write down pIC50 measured for item CC(C)(O)C1CCC(Nc2ccc3ncc(-c4cccc(C(F)(F)F)c4)n3n2)CC1 (centres undefined) + CN(C)c1ccc(Nc2c3ccc(NC(=O)CCN4CCCC4)cc3nc3cc(NC(=O)CCN4CCCC4)ccc23)cc1 5.28

Give me measured pIC50, please, for this compound: COc1ccc([C@@H](O)c2cc(-c3ncnc4cc(N5CCOCC5)ccc34)c(F)cc2Cl)nn1 + Cc1[nH]c2ccc(F)cc2c1-c1nc2c3cccnc3c3ncccc3c2[nH]1 5.23

Respond only with pIC50 recorded for C#Cc1c(F)ccc2cc(O)cc(-c3ncc4c(N5CC6CCC(C5)N6)nc(OCC56CCCN5CC(F)C6)nc4c3F)c12 (centres undefined) + CN(C)c1ccc(Nc2c3ccc(NC(=O)CCN4CCCC4)cc3nc3cc(NC(=O)CCN4CCCC4)ccc23)cc1 7.07

Query pIC50 for COc1ccc([C@@H](O)c2cc(-c3ncnc4cc(N5CCOCC5)ccc34)c(F)cc2Cl)nn1 + Cc1cnc(CNC(=O)c2c(=O)c3ccc(N4CCCN(C)CC4)nc3n3c2sc2ccccc23)cn1 6.40

* * *

tested on: 186277-243-T-J2-PDC complex spheroid viability; assay: Anticancer human tumor 186277-243-T-J2-PDC cell line growth inhibition [GQUAD]; details: second compound 3.16 µM; first compound 0.00316 µM; stronger effect = lower value;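 further: spheroids exposed to drugs for 7 days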;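 on viability, T/C: 100% = DMSO vehicle control viability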
As shown below, each of these molecules has a reported viability, T/C value.

Observe how each entry below is paired with its result.
molecule: CCc1c2c(nc3ccc(O)cc13)-c1cc3c(c(=O)n1C2)COC(=O)[C@]3(O)CC + Cc1cnc(CNC(=O)c2c(=O)c3ccc(N4CCCN(C)CC4)nc3n3c2sc2ccccc23)cn1
assayTarget: 186277-243-T-J2-PDC complex spheroid viability
viability, T/C: 39.9%
//
molecule: CCc1c2c(nc3ccc(O)cc13)-c1cc3c(c(=O)n1C2)COC(=O)[C@]3(O)CC + Cc1[nH]c2ccc(F)cc2c1-c1nc2c3cccnc3c3ncccc3c2[nH]1
assayTarget: 186277-243-T-J2-PDC complex spheroid viability
viability, T/C: 63.5%
//
molecule: Cc1[nH]c2ccccc2c1CCNCc1ccc(/C=C/C(=O)NO)cc1 + Cc1cnc(CNC(=O)c2c(=O)c3ccc(N4CCCN(C)CC4)nc3n3c2sc2ccccc23)cn1
assayTarget: 186277-243-T-J2-PDC complex spheroid viability
viability, T/C: 38.6%

// next item, viability, T/C requested
Supply viability, T/C value. Item: CC[C@@]1(O)C(=O)OCc2c1cc1n(c2=O)Cc2cc3c(CN(C)C)c(O)ccc3nc2-1 + Cc1[nH]c2ccc(F)cc2c1-c1nc2c3cccnc3c3ncccc3c2[nH]1 94.1%

* * *

Entries annotated with measured IC50
test system: 186277-243-T-J2-PDC complex spheroid viability; assay: Anticancer human tumor 186277-243-T-J2-PDC cell line growth inhibition [GQUAD]; details: curve of first compound; second compound 0.1 µM;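 further: spheroids exposed to drugs for 7 days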

Reference set, count: 2
compound: C=CCn1c(=O)c2cnc(Nc3ccc(N4CCN(C)CC4)cc3)nc2n1-c1cccc(C(C)(C)O)n1 + Cc1cnc(CNC(=O)c2c(=O)c3ccc(N4CCCN(C)CC4)nc3n3c2sc2ccccc23)cn1
assayTarget: 186277-243-T-J2-PDC complex spheroid viability
IC50: < 31.6 nM
//
compound: Cc1cccc(N(C)C(=O)C2C(O)CCN2c2nc(C)cc(C(F)(F)F)c2C#N)c1 (stereo not drawn) + Cc1cnc(CNC(=O)c2c(=O)c3ccc(N4CCCN(C)CC4)nc3n3c2sc2ccccc23)cn1
assayTarget: 186277-243-T-J2-PDC complex spheroid viability
IC50: > 10000 nM

Specify IC50 for CC(=O)O[C@H]1C(=O)[C@@]2(C)[C@H]([C@H](OC(=O)c3ccccc3)[C@]3(O)C[C@H](OC(=O)[C@H](O)[C@@H](NC(=O)c4ccccc4)c4ccccc4)C(C)=C1C3(C)C)[C@]1(OC(C)=O)CO[C@@H]1C[C@@H]2O + CN(C)c1ccc(Nc2c3ccc(NC(=O)CCN4CCCC4)cc3nc3cc(NC(=O)CCN4CCCC4)ccc23)cc1 and stop. < 31.6 nM

* * *

test system: 186277-243-T-J2-PDC complex spheroid viability; test: Anticancer human tumor 186277-243-T-J2-PDC cell line growth inhibition [GQUAD]; conditions: curve of first compound; second compound 1 µM;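 further: spheroids exposed to drugs for 7 days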
Reported pIC50 values follow for various molecules
Scale: negative log10 of molar concentration, which is what pIC50 denotes.

Using 186277-243-T-J2-PDC complex spheroid viability as the test system, report measured pIC50 of CC1COCCN1c1cc(C2(S(C)(=N)=O)CC2)nc(-c2ccnc3[nH]ccc23)n1 (stereo unspecified) + CN(C)c1ccc(Nc2c3ccc(NC(=O)CCN4CCCC4)cc3nc3cc(NC(=O)CCN4CCCC4)ccc23)cc1 . 6.01

* * *

system: 186277-243-T-J2-PDC complex spheroid viability; experiment: Anticancer human tumor 186277-243-T-J2-PDC cell line growth inhibition [GQUAD]; details: second compound 0.316 µM; first compound 0.0999 µM; active = viability on the fitted dose curve at most 10% of control; inactive = the rest;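 further: spheroids exposed to drugs for 7 days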
Write down the outcome that applies. Available outcomes: 1 (active), -1 (inactive)

compound: CC[C@@]1(O)C(=O)OCc2c1cc1n(c2=O)Cc2cc3c(CN(C)C)c(O)ccc3nc2-1 + Cc1cnc(CNC(=O)c2c(=O)c3ccc(N4CCCN(C)CC4)nc3n3c2sc2ccccc23)cn1
groupLabel: -1

Just curious, what result did Cn1ncnc1[C@H]1c2n[nH]c(=O)c3cc(F)cc(c23)N[C@@H]1c1ccc(F)cc1 + CN(C)c1ccc(Nc2c3ccc(NC(=O)CCN4CCCC4)cc3nc3cc(NC(=O)CCN4CCCC4)ccc23)cc1 get here? -1

Test call for this compound, please: Cc1[nH]c2ccccc2c1CCNCc1ccc(/C=C/C(=O)NO)cc1 + CN(C)c1ccc(Nc2c3ccc(NC(=O)CCN4CCCC4)cc3nc3cc(NC(=O)CCN4CCCC4)ccc23)cc1 -1

Lab log entry: CC[C@@]1(O)C(=O)OCc2c1cc1n(c2=O)Cc2cc3c(CN(C)C)c(O)ccc3nc2-1 + Cc1[nH]c2ccc(F)cc2c1-c1nc2c3cccnc3c3ncccc3c2[nH]1 — outcome as called in the assay? -1

Called result for Cn1ncnc1[C@H]1c2n[nH]c(=O)c3cc(F)cc(c23)N[C@@H]1c1ccc(F)cc1 + Cc1cnc(CNC(=O)c2c(=O)c3ccc(N4CCCN(C)CC4)nc3n3c2sc2ccccc23)cn1 -1

Dear all, I need the recorded test outcome for CC[C@@]1(O)C(=O)OCc2c1cc1n(c2=O)Cc2cc3c(CN(C)C)c(O)ccc3nc2-1 + CN(C)c1ccc(Nc2c3ccc(NC(=O)CCN4CCCC4)cc3nc3cc(NC(=O)CCN4CCCC4)ccc23)cc1 , thank you. -1

Query: recorded result category for Cc1[nH]c2ccccc2c1CCNCc1ccc(/C=C/C(=O)NO)cc1 + Cc1[nH]c2ccc(F)cc2c1-c1nc2c3cccnc3c3ncccc3c2[nH]1 in this test 1
